Reference source: patent US20130164281A1

- Assayed target: T1, human c-Met/Fc fusion protein (R&D Systems) (human, UniProt P08581 25-932)
- T1 construct: Bought reagent; also called c-Met/Fc chimera (R&D Systems Cat. No. 358-MT/CF); not shown: Fc part of the bought fusion
- T1 sequence (P08581 25-932 limits assumed): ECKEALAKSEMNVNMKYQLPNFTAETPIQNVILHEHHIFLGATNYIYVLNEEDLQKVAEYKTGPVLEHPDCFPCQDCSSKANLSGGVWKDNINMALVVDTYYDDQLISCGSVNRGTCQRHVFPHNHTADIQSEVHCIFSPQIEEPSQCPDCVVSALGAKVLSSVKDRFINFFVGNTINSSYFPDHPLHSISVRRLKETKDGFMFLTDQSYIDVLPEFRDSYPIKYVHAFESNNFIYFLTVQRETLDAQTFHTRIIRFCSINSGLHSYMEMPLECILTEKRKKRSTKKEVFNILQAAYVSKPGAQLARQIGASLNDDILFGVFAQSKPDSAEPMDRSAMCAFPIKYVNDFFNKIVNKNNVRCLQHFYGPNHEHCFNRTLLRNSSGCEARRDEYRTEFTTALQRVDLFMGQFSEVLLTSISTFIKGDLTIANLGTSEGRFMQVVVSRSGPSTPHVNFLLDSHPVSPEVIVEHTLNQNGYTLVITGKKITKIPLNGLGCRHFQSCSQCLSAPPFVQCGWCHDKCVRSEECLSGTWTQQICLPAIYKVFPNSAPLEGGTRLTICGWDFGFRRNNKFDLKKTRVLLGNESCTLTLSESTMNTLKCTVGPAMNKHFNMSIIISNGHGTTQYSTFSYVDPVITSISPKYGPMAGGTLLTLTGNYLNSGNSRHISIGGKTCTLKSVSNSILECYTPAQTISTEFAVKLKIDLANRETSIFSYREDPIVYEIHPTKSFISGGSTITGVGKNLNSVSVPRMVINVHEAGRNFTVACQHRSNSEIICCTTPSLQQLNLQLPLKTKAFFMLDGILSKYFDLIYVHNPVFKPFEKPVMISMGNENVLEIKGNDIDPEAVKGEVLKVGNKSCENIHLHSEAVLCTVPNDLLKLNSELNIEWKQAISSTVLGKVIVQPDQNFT
- Assay overview: competition ELISA on coated c-Met/Fc; competitor biotinylated chAbF46 (0.1 ug/ml)
Measurement label: pIC50
Note: pIC50 values are expressed as the negative base-10 logarithm of concentration in M.

Solved cases (5 shown):
deimmunized humanized antibody huAbF46 including a combination of AT-VH3 and AT-Vk1 (antibody, IgG1, V domains shown, expressed from pANTVhG1 and pANTVk vectors (IgG1, kappa) in HEK293 cells; also called AT-VH3/AT-Vk1) VH: EVQLVESGGGLVQPGGSLRLSCATSGFTFTDYYMSWVRQPPGKGLEWLGFIRNKANGYTTEYSASVKGRFTISRDNSKSTLYLQMNSLRAEDTATYYCARDNWFAYWGQGTLVTVSS VL: DILMTQSPSSLTASVGDRVTMTCKSSQSLLASGNQNNYLAWHQQKPGKAPKMLIIWASTRVSGVPDRFIGSGSGTDFTLTISSLQAEDVAVYYCQQSYSAPLTFGQGTKLEIK = 8.45
deimmunized humanized antibody huAbF46 including a combination of AT-VH5 and AT-Vk1 (antibody, IgG1, V domains shown, expressed from pANTVhG1 and pANTVk vectors (IgG1, kappa) in HEK293 cells; also called AT-VH5/AT-Vk1) VH: EVQLVESGGGLVQPGGSLRLSCATSGFTFTDYYMSWVRQPPGKGLEWLGFIRNKANGYTTEYSASVKGRFTISRDNSKNTLYLQMNSLRAEDTAVYYCARDNWFAYWGQGTLVTVSS VL: DILMTQSPSSLTASVGDRVTMTCKSSQSLLASGNQNNYLAWHQQKPGKAPKMLIIWASTRVSGVPDRFIGSGSGTDFTLTISSLQAEDVAVYYCQQSYSAPLTFGQGTKLEIK = 8.69
deimmunized humanized antibody huAbF46 including a combination of AT-VH3 and AT-Vk2 (antibody, IgG1, V domains shown, expressed from pANTVhG1 and pANTVk vectors (IgG1, kappa) in HEK293 cells; also called AT-VH3/AT-Vk2) VH: EVQLVESGGGLVQPGGSLRLSCATSGFTFTDYYMSWVRQPPGKGLEWLGFIRNKANGYTTEYSASVKGRFTISRDNSKSTLYLQMNSLRAEDTATYYCARDNWFAYWGQGTLVTVSS VL: DILMTQSPSSLSASVGDRVTITCKSSQSLLASGNQNNYLAWHQQKPGKAPKMLIIWASTRVSGVPDRFIGSGSGTDFTLTISSLQAEDVAVYYCQQSYSAPLTFGQGTKLEIK = 8.35
deimmunized humanized antibody huAbF46 including a combination of AT-VH1 and AT-Vk2 (antibody, IgG1, V domains shown, expressed from pANTVhG1 and pANTVk vectors (IgG1, kappa) in HEK293 cells; also called AT-VH1/AT-Vk2) VH: EVKLVESGGGLVQPGGSLRLSCATSGFTFTDYYMSWVRQPPGKGLEWLGFIRNKANGYTTEYSASVKGRFTISRDNSKSTLYLQMNSLRAEDSATYYCARDNWFAYWGQGTLVTVSS VL: DILMTQSPSSLSASVGDRVTITCKSSQSLLASGNQNNYLAWHQQKPGKAPKMLIIWASTRVSGVPDRFIGSGSGTDFTLTISSLQAEDVAVYYCQQSYSAPLTFGQGTKLEIK = 8.83
deimmunized humanized antibody huAbF46 including a combination of AT-VH2 and AT-Vk3 (antibody, IgG1, V domains shown, expressed from pANTVhG1 and pANTVk vectors (IgG1, kappa) in HEK293 cells; also called AT-VH2/AT-Vk3) VH: EVKLVESGGGLVQPGGSLRLSCATSGFTFTDYYMSWVRQPPGKGLEWLGFIRNKANGYTTEYSASVKGRFTISRDNSKSTLYLQMNSLRAEDTATYYCARDNWFAYWGQGTLVTVSS VL: DIQMTQSPSSLSASVGDRVTITCKSSQSLLASGNQNNYLAWHQQKPGKAPKMLIIWASTRVSGVPDRFIGSGSGTDFTLTISSLQAEDVAVYYCQQSYSAPLTFGQGTKLEIK = 8.77

Input line: Quick one: pIC50 of deimmunized humanized antibody huAbF46 including a combination of AT-VH5 and AT-Vk2 (antibody, IgG1, V domains shown, expressed from pANTVhG1 and pANTVk vectors (IgG1, kappa) in HEK293 cells; also called AT-VH5/AT-Vk2) VH: EVQLVESGGGLVQPGGSLRLSCATSGFTFTDYYMSWVRQPPGKGLEWLGFIRNKANGYTTEYSASVKGRFTISRDNSKNTLYLQMNSLRAEDTAVYYCARDNWFAYWGQGTLVTVSS VL: DILMTQSPSSLSASVGDRVTITCKSSQSLLASGNQNNYLAWHQQKPGKAPKMLIIWASTRVSGVPDRFIGSGSGTDFTLTISSLQAEDVAVYYCQQSYSAPLTFGQGTKLEIK ?
Output line: 8.84

Input line: What do we get for deimmunized humanized antibody huAbF46 including a combination of AT-VH1 and AT-Vk3 (antibody, IgG1, V domains shown, expressed from pANTVhG1 and pANTVk vectors (IgG1, kappa) in HEK293 cells; also called AT-VH1/AT-Vk3) VH: EVKLVESGGGLVQPGGSLRLSCATSGFTFTDYYMSWVRQPPGKGLEWLGFIRNKANGYTTEYSASVKGRFTISRDNSKSTLYLQMNSLRAEDSATYYCARDNWFAYWGQGTLVTVSS VL: DIQMTQSPSSLSASVGDRVTITCKSSQSLLASGNQNNYLAWHQQKPGKAPKMLIIWASTRVSGVPDRFIGSGSGTDFTLTISSLQAEDVAVYYCQQSYSAPLTFGQGTKLEIK ?
Output line: 8.64
